Numbers sourced from the supplement of paper PMC11451515.

- Tested on: SEM cells
- Assay Remarks: cell viability relative to DMSO control; higher = less cytotoxic
- Measurement Setup: RPMI 5 mM glucose + 10% dialyzed FBS; 48 h; 5.12 µM
With a cut-off of 80%, any cell viability strictly below it is called True; any cell viability meeting it or above is called False.

// known answers, use as guide
- Molecule: "CN1c2ccccc2C(=O)N2CCc3c([nH]c4ccccc34)C21 (centres undefined)"
  Tgt: "SEM cells"
  Qualitative Label: "False"
- Molecule: "CCN(C(=O)C/1=C(O)/C2=C(C=CC=C2Cl)N(C)C1=O)C3=CC=CC=C3"
  Tgt: "SEM cells"
  Qualitative Label: "True"
- Molecule: "O=C(Nc1ncc(SCCN2CCCC2)s1)[C@]1(c2ccc([S+](=O)([O-])C3CC3)cc2)C[C@H]1C1CCCCC1"
  Tgt: "SEM cells"
  Qualitative Label: "False"
- Molecule: "COC/1=C/C=C2\\C(=C/C1=O)[C@H](CCC3=CC(=C(OC)C(=C23)OC)OC)NC(C)=O"
  Tgt: "SEM cells"
  Qualitative Label: "True"
- Molecule: "Nc1nc(N)c2nc(-c3cccc(O)c3)c(-c3cccc(O)c3)nc2n1"
  Tgt: "SEM cells"
  Qualitative Label: "False"
- Molecule: "C[S+](=O)([O-])c1ccc(C(=O)Nc2ccc(Cl)c(-c3ccccn3)c2)c(Cl)c1"
  Tgt: "SEM cells"
  Qualitative Label: "False"
- Molecule: "Nc1cc(C(F)(F)F)c(-c2cc(N3CCOCC3)nc(N3CCOCC3)n2)cn1"
  Tgt: "SEM cells"
  Qualitative Label: "True"
- Molecule: "CC(C)c1cc(C(=O)N2Cc3ccc(CN4CCN(C)CC4)cc3C2)c(O)cc1O"
  Tgt: "SEM cells"
  Qualitative Label: "True"
- Molecule: "CC(C)c1ccc(Cn2ccc3c4c(N)nc(NC5CC5)nc4ccc32)cc1"
  Tgt: "SEM cells"
  Qualitative Label: "True"
- Molecule: "CN1\\N=C(N)/C2=C[N]([C@@H]3O[C@H](CO[P](O)(O)=O)[C@@H](O)[C@H]3O)C4=C2C1=NC=N4"
  Tgt: "SEM cells"
  Qualitative Label: "True"

In: Dear reviewer, please state whether COc1cccc([C@@H](C)NCCCc2ccccc2Cl)c1 has cell viability strictly beneath 80%.
Out: False

In: A record lists COc1ccc(Nc2nccc(NCCO)n2)cc1 . Is its cell viability below 80%?
Out: True

In: Does NC(=O)c1cccc2nc(-c3ccc([C@H]4CCCN4)cc3F)[nH]c12 have cell viability strictly under 80%?
Out: True

In: Find out if reported cell viability for c1ccc(CNc2nc(N3CCOc4ccccc43)nc3c2CCCC3)cc1 is less than 80%
Out: False

In: # check: cell viability < 80% for NC(=O)c1cccc2cn(-c3ccc([C@@H]4CCCNC4)cc3)nc12
Out: False

In: Please check: cell viability for COc1cc(OC)c(OC)cc1C=O , strictly under 80% or not?
Out: False

In: # check: cell viability < 80% for O=C1Nc2ccc(I)cc2/C1=C/c1cc(Br)c(O)c(Br)c1
Out: False

* * *

- System: NOMO1
- Assay Remarks: cell viability relative to DMSO control; higher = less cytotoxic
- Measurement Setup: RPMI 5 mM glucose + 10% FBS; 48 h; 5.12 µM
Property Label: cell viability (%)
Give bare numbers, in %.

Example entries and their recorded answers appear below.
- Compound: "CCOC(=O)c1cncn1[C@H](C)c1ccccc1"
  Tgt: "NOMO1"
  Property Label: "cell viability"
  Unit String: "%"
  Val: 117
- Compound: "CC/1=C(/C(CC(=O)N1)C2=CC=C(C=C2)C(F)(F)F)C(=O)NC3=C(F)C=C4[NH]N=CC4=C3 (configuration not stated)"
  Tgt: "NOMO1"
  Property Label: "cell viability"
  Unit String: "%"
  Val: 84.2
- Compound: "C[C@@H](NC(=O)c1ncnc(N)c1Cl)c1ncc(C(=O)Nc2cc(C(F)(F)F)c(Cl)cn2)s1"
  Tgt: "NOMO1"
  Property Label: "cell viability"
  Unit String: "%"
  Val: 114
- Compound: "c1ccc(CNc2nc(N3CCOc4ccccc43)nc3c2CCCC3)cc1"
  Tgt: "NOMO1"
  Property Label: "cell viability"
  Unit String: "%"
  Val: 106

Working through the 3 compounds below one at a time, give cell viability for each.
1. CC(C)c1ccc(Cn2ccc3c4c(N)nc(NC5CC5)nc4ccc32)cc1
2. NC(=O)c1cccc2cn(-c3ccc([C@@H]4CCCNC4)cc3)nc12
3. COC(=O)C1C2CC3c4[nH]c5cc(OC)ccc5c4CCN3CC2CC(OC(=O)c2cc(OC)c(OC)c(OC)c2)C1OC (configuration not stated)

Out:
[100, 103, 96.4]

* * *

- System: SEM cells
- Assay Remarks: cell viability relative to DMSO control; higher = less cytotoxic
- Measurement Setup: RPMI 5 mM glucose + 10% FBS; 48 h; 0.00702 µM
Property Label: cell viability (%)
One number for each entry, in %.

Example results:
- Compound String: "CN[C@@H](C)C(=O)N[C@H]1CN(C(=O)CC(C)C)CC[C@H]2CC[C@@H](C(=O)NC(c3ccccc3)c3ccccc3)N2C1=O"
  Tgt: "SEM cells"
  Val: 105
- Compound String: "N[S+](=O)([O-])c1cccc2c1C(=O)c1cccc(O)c1C2=O"
  Tgt: "SEM cells"
  Val: 102
- Compound String: "Cc1cnc(C(=O)O)c[n+]1[O-]"
  Tgt: "SEM cells"
  Val: 81
- Compound String: "CCC(=O)N[C@H]1CC[C@H](C(=O)N(C)c2ccc(-c3nc4ccccc4o3)cc2)C1"
  Tgt: "SEM cells"
  Val: 78.4
- Compound String: "ClC1=CC\\2=C(NC(=O)\\C(=C2N[C@@H]3CN4CCC3CC4)C5=NC6=C([NH]5)C=CC=C6)C=C1"
  Tgt: "SEM cells"
  Val: 83.9

Shifting focus to the molecule that follows.
Lab note: measured cell viability of Nc1cc(C(F)(F)F)c(-c2cc(N3CCOCC3)nc(N3CCOCC3)n2)cn1 was 88.1

* * *

- Test system: NOMO1
- Assay Remarks: cell viability relative to DMSO control; higher = less cytotoxic
- Measurement Setup: HPLM + 10% dialyzed FBS; 48 h; 46.1 µM
Property Label: cell viability (%)
Answers are plain numbers, in %.

Illustrative cases are given below, each with its answer.
- Molecule: "CC/1=C(/C(CC(=O)N1)C2=CC=C(C=C2)C(F)(F)F)C(=O)NC3=C(F)C=C4[NH]N=CC4=C3 (centres undefined)"
  Tgt: "NOMO1"
  Unit String: "%"
  cell viability: 11.5
- Molecule: "NC(=O)c1cccc2cn(-c3ccc([C@@H]4CCCNC4)cc3)nc12"
  Tgt: "NOMO1"
  Unit String: "%"
  cell viability: 69
- Molecule: "CC(/C=C/C(=O)NO)=C\\[C@@H](C)C(=O)c1ccc(N(C)C)cc1"
  Tgt: "NOMO1"
  Unit String: "%"
  cell viability: 2.85

Consider the record given below.
Reading of cell viability for N[S+](=O)([O-])c1cccc2c1C(=O)c1cccc(O)c1C2=O with NOMO1: 4.98

* * *

Would you mind telling me the reported cell viability of each entry?
- System: P12-Ichikawa
- Assay Remarks: cell viability relative to DMSO control; higher = less cytotoxic
- Measurement Setup: RPMI 5 mM glucose + 10% FBS; 48 h; 46.1 µM
Answers are plain numbers, in %.

// solved cases for cell viability follow
- Compound: "C=CCc1cccc(/C=N/NC(=O)CN2CCN(Cc3ccccc3)CC2)c1O"
  Val: 17.1
- Compound: "CN(C)CCN(C)C(=O)c1ccc(NC(=O)Nc2ccc(-c3nc(N4CCOCC4)c4ccn(CC(F)(F)F)c4n3)cc2)cc1"
  Val: 69.9
- Compound: "Cc1cc(C(=O)N2CCN(c3cccc(Cl)c3)CC2)n(-c2ccccc2)n1"
  Val: 16.6
- Compound: "Cc1cnc(C(=O)O)c[n+]1[O-]"
  Val: 100

Your task in this section: give cell viability for each listed record.
1. COc1cc([C@H]2Oc3cc([C@H]4Oc5cc(O)cc(O)c5C(=O)[C@@H]4O)ccc3O[C@@H]2CO)ccc1O
2. C=CC(=O)Nc1cccc(Nc2nc(NC3CCC(N(C)C)CC3)nc3c2ncn3C(C)C)c1 (centres undefined)
3. COC1=C2C[C@@H](C)C[C@H](OC)[C@H](O)[C@@H](C)/C=C(\C)[C@H](OC(N)=O)[C@@H](OC)/C=C/C=C(\C)C(=O)NC(=CC1=O)C2=O
4. O=C(O)CCn1c2c(c3ccccc31)C[C@H](N[S+](=O)([O-])c1ccc(F)cc1)CC2
5. ClC1=CC\2=C(OC3=C(C=CC=C3)\N=C2N4CCNCC4)C=C1
6. CC(C)C[C@H](NC(=O)CNC(=O)c1cc(Cl)ccc1Cl)B(O)O
7. N#Cc1ccnc(Nc2cc(C3CCN(C4COC4)CC3)cc(N3CCC(F)(F)C3)n2)c1
8. Cn1c(=O)n(-c2ccc(C(C)(C)C#N)cc2)c2c3cc(-c4cnc5ccccc5c4)ccc3ncc21

Out:
[94.2, 5.44, 27.2, 95.5, 87.8, 1.86, 32.2, 12.1]

Answer for every listed entry: what is its cell viability? The entries follow.
1. O=C(Cc1ccc(-c2ccc(OCCN3CCOCC3)cc2)cn1)NCc1ccccc1
2. CC1(N2CCC(n3c([C@@H]4CCCNC4)nc4ccccc43)CC2)CCCCCCC1

Out:
8.38
67.9
